# target system: human Nav1.7 (Homo sapiens (Human), UniProt Q15858)
# Sequence (Q15858 whole entry): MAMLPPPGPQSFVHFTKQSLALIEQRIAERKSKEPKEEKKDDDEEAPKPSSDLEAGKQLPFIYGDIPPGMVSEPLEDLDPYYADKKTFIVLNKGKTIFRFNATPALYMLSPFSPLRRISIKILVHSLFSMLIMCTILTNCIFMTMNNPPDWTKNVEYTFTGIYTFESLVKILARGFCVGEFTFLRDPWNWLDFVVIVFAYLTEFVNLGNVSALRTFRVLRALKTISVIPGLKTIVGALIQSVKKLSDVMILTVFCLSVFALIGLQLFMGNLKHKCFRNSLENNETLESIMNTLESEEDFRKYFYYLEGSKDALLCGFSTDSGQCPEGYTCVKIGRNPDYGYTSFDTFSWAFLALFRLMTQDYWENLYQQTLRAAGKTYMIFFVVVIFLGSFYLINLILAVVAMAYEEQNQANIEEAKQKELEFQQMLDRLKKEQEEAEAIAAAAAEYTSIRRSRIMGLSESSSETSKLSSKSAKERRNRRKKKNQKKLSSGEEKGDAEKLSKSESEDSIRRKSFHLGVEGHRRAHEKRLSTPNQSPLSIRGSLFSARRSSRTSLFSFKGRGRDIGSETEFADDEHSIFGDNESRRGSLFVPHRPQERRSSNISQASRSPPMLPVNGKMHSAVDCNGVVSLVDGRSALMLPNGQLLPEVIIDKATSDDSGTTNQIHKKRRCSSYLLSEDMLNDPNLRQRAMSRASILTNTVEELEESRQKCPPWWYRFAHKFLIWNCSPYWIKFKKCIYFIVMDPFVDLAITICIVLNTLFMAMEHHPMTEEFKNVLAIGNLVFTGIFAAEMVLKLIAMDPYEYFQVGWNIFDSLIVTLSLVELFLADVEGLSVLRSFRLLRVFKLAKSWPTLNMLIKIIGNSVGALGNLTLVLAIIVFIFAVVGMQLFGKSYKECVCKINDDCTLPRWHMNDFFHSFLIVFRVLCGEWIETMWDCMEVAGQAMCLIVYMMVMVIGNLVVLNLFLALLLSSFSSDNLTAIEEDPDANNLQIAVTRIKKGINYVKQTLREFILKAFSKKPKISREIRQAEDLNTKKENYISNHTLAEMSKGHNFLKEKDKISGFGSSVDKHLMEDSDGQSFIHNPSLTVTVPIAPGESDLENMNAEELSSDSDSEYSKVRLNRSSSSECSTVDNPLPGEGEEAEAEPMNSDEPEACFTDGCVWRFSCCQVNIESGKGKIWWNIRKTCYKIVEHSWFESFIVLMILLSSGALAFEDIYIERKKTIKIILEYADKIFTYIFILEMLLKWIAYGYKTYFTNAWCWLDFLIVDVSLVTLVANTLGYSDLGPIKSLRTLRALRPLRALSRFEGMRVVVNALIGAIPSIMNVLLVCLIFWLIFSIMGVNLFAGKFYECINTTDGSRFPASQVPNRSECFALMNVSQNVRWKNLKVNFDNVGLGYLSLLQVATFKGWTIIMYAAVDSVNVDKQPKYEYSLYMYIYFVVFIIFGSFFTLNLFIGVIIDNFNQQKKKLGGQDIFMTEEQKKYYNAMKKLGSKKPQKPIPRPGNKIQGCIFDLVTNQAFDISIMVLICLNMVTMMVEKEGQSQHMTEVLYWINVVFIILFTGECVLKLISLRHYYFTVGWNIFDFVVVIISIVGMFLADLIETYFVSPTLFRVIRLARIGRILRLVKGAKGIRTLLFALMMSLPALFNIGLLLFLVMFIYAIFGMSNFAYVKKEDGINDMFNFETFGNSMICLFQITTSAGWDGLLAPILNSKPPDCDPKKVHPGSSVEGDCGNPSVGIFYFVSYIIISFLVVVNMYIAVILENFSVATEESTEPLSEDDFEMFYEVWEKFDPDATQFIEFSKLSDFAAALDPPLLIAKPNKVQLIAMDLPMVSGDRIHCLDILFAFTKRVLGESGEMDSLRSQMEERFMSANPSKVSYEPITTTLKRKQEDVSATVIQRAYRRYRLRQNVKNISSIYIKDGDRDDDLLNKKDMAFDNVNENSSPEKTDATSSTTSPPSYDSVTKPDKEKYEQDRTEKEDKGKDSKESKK
# Sequence (Q07699 19-218 partner): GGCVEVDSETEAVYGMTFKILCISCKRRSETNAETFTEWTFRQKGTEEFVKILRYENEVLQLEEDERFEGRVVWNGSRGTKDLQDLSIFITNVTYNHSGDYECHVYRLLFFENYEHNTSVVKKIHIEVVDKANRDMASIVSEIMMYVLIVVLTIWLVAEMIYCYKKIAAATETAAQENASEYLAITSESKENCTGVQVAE
# run description: Human Nav1.7 inhibitory activity evaluation (automated patch clamp QPatch16X, HEK293A cells stably expressing human Nav1.7 and human Navβ1)
# Format: cell-based
# measurement context: human Nav1.7, automated patch clamp
value kind: IC50

The cases that follow already have their IC50 on record.
Enquiry: Retrieve IC50 measured for CC1(COCC2CC2)CCn2nc(C(=O)N[C@H]3COc4ccc(C#N)cc4C3)cc2O1 (some centres unmarked) and print it.
Return: < 10000 nM

Enquiry: Retrieve IC50 measured for "CC1(C)CCn2nc(C(=O)N[C@H]3COc4ccc(C#N)cc4C3)cc2O1" and print it.
Return: < 10000 nM

Enquiry: Retrieve IC50 measured for CN(CCc1cccc(C(F)(F)F)c1)C(=O)c1cn2c(n1)CN(C)C(c1ccccc1)C2 (centres unmarked) and print it.
Return: < 10000 nM

Then this molecule:
Enquiry: Retrieve IC50 measured for CN1Cc2nc(C(=O)NCC(F)(F)c3cccc(C(F)(F)F)c3)cn2CC1c1ccccc1 (centres unmarked) and print it.
Return: < 10000 nM

* * *

# target system: human Nav1.7 (Homo sapiens (Human))
# run description: Human Nav1.7 inhibitory activity evaluation (automated patch clamp QPatch16X, HEK293A cells stably expressing human Nav1.7 and human Navβ1)
# Format: cell-based
# measurement context: human Nav1.7, automated patch clamp
value kind: IC50

Enquiry: Retrieve IC50 measured for O=C(N[C@H]1COc2ccc(C(F)(F)F)cc2C1O)c1cc2n(n1)CC(CCCOCC(F)F)O2 (single isomer, unassigned) [608 (isomer A)] and print it.
Return: < 1 µM

Enquiry: Retrieve IC50 measured for C=Cc1cccc2c1CC(NC(=O)c1cn3c(n1)CCC(C(F)(F)F)C3)CO2 (stereo not shown) [Example 293] and print it.
Return: < 10 µM

Enquiry: Retrieve IC50 measured for Cn1cc(-c2ccc3c(c2)C[C@@H](NC(=O)c2cc4n(n2)CC(CCOC(F)F)O4)CO3)cn1 (single isomer, unassigned) [221 (isomer A)] and print it.
Return: < 10 µM

***
Enquiry: Retrieve IC50 measured for N#Cc1ccc2c(c1)C[C@@H](NC(=O)c1cc3n(n1)CCC(OCC(F)(F)F)CO3)CO2 (single isomer, unassigned) [255 (isomer A)] and print it.
Return: < 10 µM

Enquiry: Retrieve IC50 measured for N#Cc1ccc2c(c1)C[C@@H](NC(=O)c1cc3n(n1)CC(CCCOCC(F)(F)F)O3)CO2 (stereo partly shown) [Example 245] and print it.
Return: < 1 µM

Enquiry: Retrieve IC50 measured for O=C(NC1COc2ccc(F)c(F)c2C1)c1cc2n(n1)CCC(COCC(F)(F)F)O2 (stereo not shown) [Example 627] and print it.
Return: < 10 µM

Enquiry: Retrieve IC50 measured for O=C(N[C@H]1COc2ccc(C(F)(F)F)cc2C1O)c1cc2n(n1)CC(COCC1CC1)O2 (stereo partly shown) [Example 560] and print it.
Return: < 1 µM

* * *

Some molecules, each annotated with its measured IC50.
# target system: human Nav1.7 (Homo sapiens (Human))
# run description: Human Nav1.7 inhibitory activity evaluation (automated patch clamp QPatch16X, HEK293A cells stably expressing human Nav1.7 and human Navβ1)
# Assay type: cell-based
# measurement context: human Nav1.7, automated patch clamp

Enquiry: Retrieve IC50 measured for O=C(N[C@H]1COc2ccccc2C1)c1nc2n(c1-c1ccccc1)CCN(CC(F)(F)F)C2 [Example 338] and print it.
Return: < 10 µM

***
Enquiry: Retrieve IC50 measured for N#Cc1ccc2c(c1)C[C@@H](NC(=O)c1cc3n(n1)CCN(C1(c4ccc(F)cc4)CC1)C3)CO2 [Example 282] and print it.
Return: < 1 µM

Enquiry: Retrieve IC50 measured for O=C(N[C@H]1COc2ccc(C(F)(F)F)cc2C1O)c1cc2n(n1)CCN(CCOCC(F)(F)F)C2 (stereo partly shown) [Example 677] and print it.
Return: < 10 µM

Enquiry: Retrieve IC50 measured for COc1ncc(C(F)(F)F)cc1C1CCc2nc(C(=O)N3CCC(c4ccccc4)C3)cn2C1 (stereo not shown) [Example 316] and print it.
Return: < 10 µM

Reference source: patent US12421225B2
